Kindly supply the reported normalized growth values for the records listed here.
Test: chemical genetic growth profiling, strain panel (AID 1159580);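 also: tested at 20 µM; growth read once vehicle control cultures reached saturation at 30 °C; 1 = growth at the plate median or of vehicle wells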
Conditions: S. cerevisiae deletion strains, growth OD, locus YNL222W, strain SSU72, stronger effect = lower value
About 2,000 (36%) of roughly 5,500 compounds were called active. Inconclusive results (about 18%) are left out. This is one part of the list.
Give bare numbers.

Please review the entries below; each comes with its answer.
compound: O=C(Nc1ccc(F)c(Cl)c1)c1ccccc1O
normalized growth: 0.906

compound: Oc1ccc(N=Nc2ccccn2)c(O)c1
normalized growth: 0.0956

Lab note: each compound below needs its normalized growth filled in.
1. COc1cc(CC/C(C)=N/O)ccc1OCc1ccc(Cl)cc1Cl
2. O=C(Nc1ccc(Cl)cc1)O/N=C\c1ccn(-c2ccccc2)n1
3. CS(=O)(=O)/C(C#N)=C/c1ccccc1OCc1c(Cl)cccc1Cl
4. COc1cc(CC/C(C)=N\O)ccc1OCc1ccc(Cl)c(Cl)c1
5. O=C(CCn1c(=O)oc2ccccc21)Sc1ccc(Cl)cc1Cl
6. O=S(=O)(Nc1ccc(Oc2ccc(OC(F)(F)F)cc2)cc1)c1cccc(Cl)c1

stdout:
0.98
0.946
0.966
0.969
0.892
0.979

Lab note: each compound below needs its normalized growth filled in.
1. O=[N+]([O-])c1ccc(-c2csc(Nc3ccncc3)n2)cc1
2. CS(=O)(=O)c1sc(C(=O)Sc2ccc(Cl)cc2)c2c1C=CCC2
3. CC1C/C(=N/Nc2ccc(Br)cc2)c2cc(Cl)ccc2S1(=O)=O (stereo unspecified)

stdout:
[0.996, 0.856, 0.986]

====

Kindly supply the reported normalized growth values for the records listed here.
Experiment: chemical genetic growth profiling, strain panel (AID 1159580);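 also: tested at 20 µM; growth read once vehicle control cultures reached saturation at 30 °C; 1 = growth at the plate median or of vehicle wells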
Details: S. cerevisiae deletion strains, growth OD, locus YJL187C, strain SWE1, stronger effect = lower value
About 2,000 (36%) of roughly 5,500 compounds were called active. About 18% were inconclusive and are not listed. Some of the results follow.
Numbers only.

Please review the entries below; each comes with its answer.
compound: CSc1ccc2c(c1)N(CCC1CCCCN1C)c1ccccc1S2 (stereo not given)
normalized growth: 0.939
--
compound: CC1CCC2(OC1)OC1CC3C4CCC5C[C@@H](O)CCC5(C)C4=CCC3(C)C1[C@@H]2C (stereo not given in full)
normalized growth: 1.01
--
compound: O=c1cc(-c2ccccc2)oc2cccc(O)c12
normalized growth: 0.966

Lab note: each compound below needs its normalized growth filled in.
1. Cc1cc(C)cc(OCC2CNC(=O)O2)c1 (stereo not given)
2. Cc1ccc(S(=O)(=O)Nc2ccc(C)c([N+](=O)[O-])c2)cc1
3. COc1ccc(CCNC(=S)NCCc2ccc(OC)c(OC)c2)cc1OC

stdout:
1: 0.982; 2: 1.01; 3: 0.994

====

Test: chemical genetic growth profiling, strain panel (AID 1159580);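 also: tested at 20 µM; growth read once vehicle control cultures reached saturation at 30 °C; 1 = growth at the plate median or of vehicle wells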
Conditions: S. cerevisiae deletion strains, growth OD, locus YDR162C, strain NBP2, stronger effect = lower value
Among all 5,500 compounds or so, about 2,000 (36%) were called active. Inconclusive results (about 18%) are left out. This is one part of the list. Where a SMILES comes first, the peptide text is derived from it.
Binary call on normalized growth with cut-off 1: strictly below means true, and equality or higher means false.

stdin: Bench note: check whether COc1cc2c(cc1O)C(Cc1ccc(O)cc1)N(C)CC2 (configuration not stated) shows normalized growth below 1
stdout: false

stdin: Bench note: check whether N#C/C(=C\c1cccc(O)c1)C(=O)O shows normalized growth below 1
stdout: true

stdin: Bench note: check whether Cc1nc2ccccn2c(=O)c1CCN1CCC(C(=O)c2ccc(F)cc2)CC1 shows normalized growth below 1
stdout: false

stdin: Bench note: check whether CCCCCC1C(=O)CCC1CC(=O)OC (configuration not stated) shows normalized growth below 1
stdout: false

stdin: Bench note: check whether CC(CCC(=O)O)[C@H]1CCC2C3CC[C@@H]4C[C@H](O)CC[C@]4(C)C3CC[C@@]21C (some centres not stated) shows normalized growth below 1
stdout: true

stdin: Bench note: check whether O=c1cc(-c2ccccc2)oc2c(O)c(O)ccc12 shows normalized growth below 1
stdout: true

stdin: Bench note: check whether Cc1nc2sccn2c(=O)c1CCN1CCC(=C(c2ccc(F)cc2)c2ccc(F)cc2)CC1 shows normalized growth below 1
stdout: true

stdin: Bench note: check whether CSc1ccc2c(c1)N(CCC1CCCCN1C)c1ccccc1S2 (configuration not stated) shows normalized growth below 1
stdout: true

stdin: Bench note: check whether NCCCCC(N)C(=O)NC(Cc1ccc(O)cc1)C(=O)NC(CCCCN)C(=O)O (stereo not drawn) (H-Lys-Tyr-Lys-OH; configuration not given here) shows normalized growth below 1
stdout: false

stdin: Bench note: check whether CN(C)N=Nc1nc[nH]c1C(N)=O shows normalized growth below 1
stdout: false

stdin: Bench note: check whether O=c1cc(-c2cc(O)c(O)c(O)c2)oc2cc(O)cc(O)c12 shows normalized growth below 1
stdout: false

stdin: Bench note: check whether CC(CCC(=O)O)[C@H]1CCC2C3CC[C@@H]4CCCC[C@]4(C)C3CC[C@@]21C (some centres not stated) shows normalized growth below 1
stdout: false

stdin: Bench note: check whether O=c1cc(-c2ccccc2)oc2cc(O)cc(O)c12 shows normalized growth below 1
stdout: true

stdin: Bench note: check whether Cc1cc(O)c(C=O)c2c1C(=O)Oc1c(C)c(O)c3c(c1O2)C(O)OC3=O (configuration not stated) shows normalized growth below 1
stdout: true

stdin: Bench note: check whether NC(N)=O shows normalized growth below 1
stdout: false

stdin: Bench note: check whether NS(=O)(=O)c1cc2c(cc1Cl)NC(C1CC3C=CC1C3)NS2(=O)=O (configuration not stated) shows normalized growth below 1
stdout: true

stdin: Bench note: check whether CC(=O)Nc1nnc(S(N)(=O)=O)s1 shows normalized growth below 1
stdout: true

stdin: Bench note: check whether O=C(Nc1ccccc1)Nc1ccccc1 shows normalized growth below 1
stdout: false

stdin: Bench note: check whether Cc1cc(C)cc(OCC2CNC(=O)O2)c1 (configuration not stated) shows normalized growth below 1
stdout: false
